Just for reference, ChEMBL document CHEMBL1123841 is where these values come from.

- Test system: Staphylococcus aureus
- experiment: Antimicrobial activity against Staphylococcus aureus(ATCC 6538) was determined
- Format: functional
quantity_name: MIC

INSERT INTO assay_data (smiles_structure, quantity_name, readout_value) VALUES
  ('COC(=O)/C=C/C(=O)c1ccc(C)cc1', 'MIC', '50 µM'),
  ('COC(=O)/C=C/C(=O)c1cccnc1', 'MIC', '160 µM'),
  ('O=C(O)/C=C/C(=O)c1ccccc1', 'MIC', '1260 µM'),
  ('O=C(O)/C=C/C(=O)c1ccc(-c2ccccc2)cc1', 'MIC', '80 µM'),
  ('C/C(=C\C(=O)O)C(=O)c1ccccc1', 'MIC', '18000 µM'),
  ('O=C(O)/C=C/C(=O)c1cccnc1', 'MIC', '1000 µM'),
  ('C/C(=C\C(=O)c1ccc(C)cc1)C(=O)O', 'MIC', '16000 µM'),
  ('COC(=O)/C=C/C(=O)c1ccccc1', 'MIC', '40 µM'),
  ('C/C(=C/C(=O)c1ccc(C)cc1)C(=O)O', 'MIC', '15000 µM'),
  ('C/C(=C/C(=O)O)C(=O)c1ccc(C)cc1', 'MIC', '> 15000 µM'),
  ('C/C(=C\C(=O)O)C(=O)c1ccc(C)cc1', 'MIC', '15000 µM'),
  ('COC(=O)/C=C\C(=O)c1ccccc1', 'MIC', '40 µM'),
  ('Cc1ccc(C(=O)/C=C/C(=O)O)cc1', 'MIC', '1000 µM'),
  ('C/C(=C/C(=O)O)C(=O)c1ccccc1', 'MIC', '> 16000 µM');
